# Test system: Cabbage Looper [Trichoplusia ni (Hubner)]
# Procedure Summary: Cabbage looper insecticidal test
# Format: in vivo
# Test Settings: second-instar larvae, percent in solution; 3-5 days
For each record, write down the corresponding LC50, CL.

A selection of reference data follows.
{"Compound Smiles": "Clc1ccc(N=C(OCc2cccc(Oc3ccccc3)c2)C2CC2)cc1", "LC50, CL": "0.003%"}
{"Compound Smiles": "COCc1c(F)c(F)c(COC(=Nc2ccc(F)c(Cl)c2F)C(C)C)c(F)c1F", "LC50, CL": "> 0.1%"}
{"Compound Smiles": "CC(C)C(=Nc1ccc(Br)c(F)c1)OCc1ccc(F)c(Oc2ccc(F)cc2)c1", "LC50, CL": "0.00007%"}
{"Compound Smiles": "C=C(C)C(=Nc1ccc(C(F)(F)F)cc1)OCc1ccc(F)c(Oc2ccccc2)c1", "LC50, CL": "0.00017%"}
{"Compound Smiles": "CC(C)C(=Nc1ccc(F)c(F)c1)OCc1cccc(Oc2ccc(F)cc2F)c1", "LC50, CL": "0.0003%"}

List reported LC50, CL for each of these compounds:
1. Cc1cc(N=C(OCc2cccc(Oc3ccccc3)c2)C(C)C)ccc1Br
2. CC(C)C(=Nc1cccc([N+](=O)[O-])c1)OCc1cccc(Oc2ccc(Cl)cc2)c1
3. C=C(C)C(=Nc1ccc(C(F)(F)F)cc1)OCc1cccc(Oc2ccc(Cl)cc2)n1

Completion:
1. 0.01%
2. 0.0004%
3. 0.0015%
